- ASSAYED SYSTEM: αvβ3 receptor (αvβ3 from human A375 cells) (Homo sapiens, UniProt P05106+P06756)
- Construct: αvβ3 from human A375 cells was purified analogously to a procedure which was described by Wong et al; endogenous in cells; host or cells: human A375 cells; the receptor was purified from the cells and used detergent-solubilised (n-octyl-glucopyranoside)
- Sequence (P06756 31-889 limits assumed): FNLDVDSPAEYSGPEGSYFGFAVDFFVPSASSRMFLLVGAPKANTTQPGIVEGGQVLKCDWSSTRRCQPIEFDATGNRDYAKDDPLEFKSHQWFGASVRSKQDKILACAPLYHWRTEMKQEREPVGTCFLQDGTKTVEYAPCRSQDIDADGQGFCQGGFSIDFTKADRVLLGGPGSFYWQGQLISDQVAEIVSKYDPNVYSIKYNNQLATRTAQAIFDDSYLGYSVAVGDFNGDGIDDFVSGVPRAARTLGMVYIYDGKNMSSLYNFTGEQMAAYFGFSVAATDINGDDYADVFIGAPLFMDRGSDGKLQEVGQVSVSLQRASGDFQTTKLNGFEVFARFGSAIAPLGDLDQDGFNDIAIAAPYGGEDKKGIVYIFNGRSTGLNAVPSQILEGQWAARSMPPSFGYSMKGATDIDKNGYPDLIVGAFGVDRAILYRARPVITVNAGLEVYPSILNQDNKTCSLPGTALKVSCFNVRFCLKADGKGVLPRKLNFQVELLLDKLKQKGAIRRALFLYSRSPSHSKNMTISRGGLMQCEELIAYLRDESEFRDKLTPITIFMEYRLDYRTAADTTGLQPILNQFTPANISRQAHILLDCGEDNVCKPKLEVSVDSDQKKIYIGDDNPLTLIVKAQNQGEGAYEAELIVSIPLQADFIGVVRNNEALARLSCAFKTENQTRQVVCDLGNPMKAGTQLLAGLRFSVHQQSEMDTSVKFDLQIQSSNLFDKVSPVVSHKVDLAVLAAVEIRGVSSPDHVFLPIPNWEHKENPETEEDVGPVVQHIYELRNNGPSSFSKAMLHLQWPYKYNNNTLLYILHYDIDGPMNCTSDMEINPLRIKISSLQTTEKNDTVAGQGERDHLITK
- Sequence (P06756 891-1048 partner limits assumed): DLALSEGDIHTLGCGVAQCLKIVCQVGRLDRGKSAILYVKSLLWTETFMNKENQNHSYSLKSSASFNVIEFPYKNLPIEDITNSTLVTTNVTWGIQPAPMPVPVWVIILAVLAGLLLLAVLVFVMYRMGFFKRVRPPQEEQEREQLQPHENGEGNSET
- Sequence (P05106 27-788): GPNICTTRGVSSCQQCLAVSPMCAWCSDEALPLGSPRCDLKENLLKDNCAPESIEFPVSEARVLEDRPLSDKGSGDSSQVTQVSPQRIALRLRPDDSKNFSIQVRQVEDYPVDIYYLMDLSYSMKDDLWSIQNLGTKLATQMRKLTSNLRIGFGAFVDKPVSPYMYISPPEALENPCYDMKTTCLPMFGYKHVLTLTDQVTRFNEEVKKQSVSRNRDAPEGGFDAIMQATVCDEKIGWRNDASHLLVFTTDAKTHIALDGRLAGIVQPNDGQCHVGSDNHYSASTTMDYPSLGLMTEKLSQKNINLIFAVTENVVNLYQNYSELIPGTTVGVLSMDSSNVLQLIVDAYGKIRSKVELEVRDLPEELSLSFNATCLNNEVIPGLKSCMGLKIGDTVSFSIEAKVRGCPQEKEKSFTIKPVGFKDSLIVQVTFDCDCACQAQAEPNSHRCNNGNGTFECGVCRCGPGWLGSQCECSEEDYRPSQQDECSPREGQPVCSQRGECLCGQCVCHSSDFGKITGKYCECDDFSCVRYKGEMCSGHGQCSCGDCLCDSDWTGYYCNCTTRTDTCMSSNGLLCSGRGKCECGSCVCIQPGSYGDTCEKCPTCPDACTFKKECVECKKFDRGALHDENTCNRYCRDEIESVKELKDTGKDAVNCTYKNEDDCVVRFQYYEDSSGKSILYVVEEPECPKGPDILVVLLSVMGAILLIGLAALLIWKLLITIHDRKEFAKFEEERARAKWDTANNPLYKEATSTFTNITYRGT
- ASSAY METHOD TEXT: αvβ3 binding test (echistatin displacement, WGA SPA beads)
Measured log10(IC50), listed per entry for reference.
QUANTITY: log10(IC50) (log10 of the value in nM)

COMPOUND: CC[C@@]1(OC(=O)[C@@H](NC(=O)[C@H](CCCCNC(=O)OCC2c3ccccc3-c3ccccc32)NC(=O)Nc2cccc(-c3cccc(S(=O)(=O)NC(CC(=O)O)c4ccccc4)c3)c2)C(C)C)C(=O)OCc2c1cc1n(c2=O)Cc2cc3ccccc3nc2-1 (stereo partly drawn)
log10(IC50): 2.37
--
COMPOUND: CCCNC(=O)Nc1cccc(S(=O)(=O)Nc2cccc(C(CC(=O)O)NC(=O)Nc3ccc(NC(=S)N[C@@H](Cc4c[nH]cn4)C(=O)N[C@H](C(=O)O[C@]4(CC)C(=O)OCc5c4cc4n(c5=O)Cc5cc6ccccc6nc5-4)C(C)C)cc3)c2)c1 (stereo partly drawn)
log10(IC50): 1.15
--
COMPOUND: CC[C@@]1(OC(=O)[C@@H](NC(=O)[C@H](Cc2c[nH]cn2)NC(=S)Nc2ccc(S(=O)(=O)NC(CC(=O)O)c3cccc(NS(=O)(=O)c4cccc(NC(=N)N)c4)c3)cc2)C(C)C)C(=O)OCc2c1cc1n(c2=O)Cc2cc3ccccc3nc2-1 (stereo partly drawn)
log10(IC50): 1.65
--
COMPOUND: CC[C@@]1(OC(=O)[C@@H](NC(=O)[C@H](Cc2c[nH]cn2)NC(=S)Nc2cccc(S(=O)(=O)NC(CC(=O)O)c3cccc(NS(=O)(=O)c4cccc(NC(=N)N)c4)c3)c2)C(C)C)C(=O)OCc2c1cc1n(c2=O)Cc2cc3ccccc3nc2-1 (stereo partly drawn)
log10(IC50): 2.17
--
COMPOUND: CC[C@@]1(OC(=O)[C@@H](NC(=O)[C@H](Cc2cnc[nH]2)NC(=O)Nc2cccc(-c3ccc(C[C@H](NS(=O)(=O)CC45CCC(CC4=O)C5(C)C)C(=O)O)cc3)c2)C(C)C)C(=O)OCc2c1cc1n(c2=O)Cc2cc3ccccc3nc2-1 (stereo partly drawn)
log10(IC50): 1.93
--
COMPOUND: CC[C@@]1(OC(=O)CCC(=O)NC(CC(=O)O)c2cccc(NS(=O)(=O)c3cccc(NC(=N)N)c3)c2)C(=O)OCc2c1cc1n(c2=O)Cc2cc3ccccc3nc2-1 (stereo partly drawn)
log10(IC50): 1.90

====

- Tested on: HT 29
- ASSAY METHOD TEXT: Growth inhibition test (MTT), cytotoxic action on tumour cell lines
- Type: cell-based
- TEST CONTEXT: Homo sapiens, HT-29, 144 h, read-out: IC50 values of the cytotoxic action on tumour cell lines, HT 29
- Procedure: The human large intestine cell lines SW 480 and HT29 (ATCC No. CCL 228 and HTB38), the human breast cell lines MDA-MB 231, MCF-7 and BT20 (ATCC No. HTB-, 26, 22 and 23) and the mouse melanoma cell line B16F 10 (CRL 6475) were grown to confluence in Roux dishes in RPMI 1640 medium with addition of 10% FCS. […] After shaking with 100 μl of H2O for 30 min, the extinction was measured at 595-nm using a Multiplate Reader (BIO-RAD 3550-UV). […]
Measured IC50, listed per entry for reference.
QUANTITY: IC50 (µM)

COMPOUND: CC[C@@]1(OC(=O)[C@@H](NC(=O)[C@H](CCC(=O)O)NC(=S)Nc2cccc(C(=O)NCC(=O)NC(CC(=O)O)c3ccccc3)c2)C(C)C)C(=O)OCc2c1cc1n(c2=O)Cc2cc3ccccc3nc2-1 (stereo partly drawn)
VALUE: 0.3

COMPOUND: CC[C@@]1(OC(=O)[C@@H](NC(=O)[C@H](CCCCN)NC(=S)Nc2cccc(C(=O)NCC(=O)NC(CC(=O)O)c3ccccc3)c2)C(C)C)C(=O)OCc2c1cc1n(c2=O)Cc2cc3ccccc3nc2-1 (stereo partly drawn)
VALUE: 0.09

COMPOUND: CC[C@@]1(OC(=O)[C@@H](NC(=O)[C@H](Cc2cnc[nH]2)NC(=O)Nc2cccc(-c3ccc(C[C@H](NS(=O)(=O)CC45CCC(CC4=O)C5(C)C)C(=O)O)cc3)c2)C(C)C)C(=O)OCc2c1cc1n(c2=O)Cc2cc3ccccc3nc2-1 (stereo partly drawn)
VALUE: 0.6

COMPOUND: CC[C@@]1(OC(=O)CCC(=O)NC(CC(=O)O)c2cccc(NS(=O)(=O)c3cccc(NC(=N)N)c3)c2)C(=O)OCc2c1cc1n(c2=O)Cc2cc3ccccc3nc2-1 (stereo partly drawn)
VALUE: 0.18

COMPOUND: CC[C@@]1(OC(=O)[C@@H](NC(=O)[C@H](Cc2c[nH]cn2)NC(=S)Nc2ccc(C(=O)NC(CC(=O)O)c3cccc(NS(=O)(=O)c4cccc(NC(=N)N)c4)c3)cc2)C(C)C)C(=O)OCc2c1cc1n(c2=O)Cc2cc3ccccc3nc2-1 (stereo partly drawn)
VALUE: 0.09

COMPOUND: CC[C@@]1(OC(=O)C(NC(=O)C(CCCCN)NC(=S)Nc2cccc(-c3ccc(C[C@H](NS(=O)(=O)CC45CCC(CC4=O)C5(C)C)C(=O)O)cc3)c2)C(C)C)C(=O)OCc2c1cc1n(c2=O)Cc2cc3ccccc3nc2-1 (stereo partly drawn)
VALUE: 0.3

COMPOUND: CC[C@@]1(OC(=O)[C@@H](NC(=O)[C@H](CCCCNC(=O)OCC2c3ccccc3-c3ccccc32)NC(=O)Nc2cccc(-c3cccc(S(=O)(=O)NC(CC(=O)O)c4ccccc4)c3)c2)C(C)C)C(=O)OCc2c1cc1n(c2=O)Cc2cc3ccccc3nc2-1 (stereo partly drawn)
VALUE: 0.7

COMPOUND: CCCNC(=O)Nc1cccc(-c2ccc(CC(NC(=S)Nc3cccc4nc5c(cc34)Cn3c-5cc4c(c3=O)COC(=O)[C@]4(O)CC)C(=O)O)cc2)c1 (stereo partly drawn)
VALUE: 0.2

COMPOUND: CCC1(OC(=O)[C@@H](NC(=O)Nc2cccc(-c3ccc(S(=O)(=O)NC(CC(=O)O)c4ccccc4)cc3)c2)C(C)C)C(=O)OCc2c1cc1n(c2=O)Cc2cc3ccccc3nc2-1 (stereo partly drawn)
VALUE: 0.009

====

Measured pIC50, listed per entry for reference.
- ASSAYED SYSTEM: αvβ3 receptor (αvβ3 from human A375 cells) (Homo sapiens, UniProt P05106+P06756)
- Construct: αvβ3 from human A375 cells was purified analogously to a procedure which was described by Wong et al; endogenous in cells; host or cells: human A375 cells; the receptor was purified from the cells and used detergent-solubilised (n-octyl-glucopyranoside)
- ASSAY METHOD TEXT: αvβ3 binding test (echistatin displacement, WGA SPA beads)
pIC50: −log10 of the molar value.
QUANTITY: pIC50

COMPOUND: CC[C@@]1(OC(=O)[C@@H](NC(=O)[C@H](Cc2c[nH]cn2)NC(=S)Nc2cccc(S(=O)(=O)Nc3cccc(C(CC(=O)O)NS(=O)(=O)c4ccccc4)c3)c2)C(C)C)C(=O)OCc2c1cc1n(c2=O)Cc2cc3ccccc3nc2-1 (some centres unmarked)
VALUE: 6.16
//
COMPOUND: CC[C@@]1(OC(=O)[C@@H](NC(=O)[C@H](Cc2c[nH]cn2)NC(=S)Nc2ccc(NC(=O)NC(CC(=O)O)c3cccc(NS(=O)(=O)c4cccc(NC(=N)N)c4)c3)cc2)C(C)C)C(=O)OCc2c1cc1n(c2=O)Cc2cc3ccccc3nc2-1 (some centres unmarked)
VALUE: 7.44
//
COMPOUND: CC[C@@]1(OC(=O)[C@@H](NC(=O)[C@H](CCCCNC(=O)OCC2c3ccccc3-c3ccccc32)NC(=O)Nc2cccc(-c3ccc(S(=O)(=O)NC(CC(=O)O)c4ccccc4)cc3)c2)C(C)C)C(=O)OCc2c1cc1n(c2=O)Cc2cc3ccccc3nc2-1 (some centres unmarked)
VALUE: 7.08
//
COMPOUND: CC[C@@]1(OC(=O)[C@@H](NC(=O)[C@H](CCCCNC(=O)OCC2c3ccccc3-c3ccccc32)NC(=O)Nc2cccc(-c3ccc(C[C@H](NS(=O)(=O)CC45CCC(CC4=O)C5(C)C)C(=O)O)cc3)c2)C(C)C)C(=O)OCc2c1cc1n(c2=O)Cc2cc3ccccc3nc2-1 (some centres unmarked)
VALUE: 6.62
//
COMPOUND: CC[C@@]1(OC(=O)[C@@H](NC(=O)[C@H](Cc2cnc[nH]2)NC(=S)Nc2cccc(C(CC(=O)O)NS(=O)(=O)c3cccc(-c4cccc(NC(=O)Nc5nc6ccccc6[nH]5)c4)c3)c2)C(C)C)C(=O)OCc2c1cc1n(c2=O)Cc2cc3ccccc3nc2-1 (some centres unmarked)
VALUE: 7.66
//
COMPOUND: CCCNC(=O)Nc1cccc(S(=O)(=O)Nc2cccc(C(CC(=O)O)NS(=O)(=O)c3ccc(NC(=S)N[C@@H](Cc4c[nH]cn4)C(=O)N[C@H](C(=O)O[C@]4(CC)C(=O)OCc5c4cc4n(c5=O)Cc5cc6ccccc6nc5-4)C(C)C)cc3)c2)c1 (some centres unmarked)
VALUE: 6.41
//
COMPOUND: CC[C@@]1(OC(=O)[C@@H](NC(=O)[C@H](Cc2cnc[nH]2)NC(=S)Nc2cccc(C(CC(=O)O)NS(=O)(=O)c3ccc(-c4cccc(NC(=O)Nc5nc6ccccc6[nH]5)c4)cc3)c2)C(C)C)C(=O)OCc2c1cc1n(c2=O)Cc2cc3ccccc3nc2-1 (some centres unmarked)
VALUE: 7.60
//
COMPOUND: CC[C@@]1(OC(=O)[C@@H](NC(=O)[C@H](Cc2c[nH]cn2)NC(=S)Nc2ccc(C(=O)NC(CC(=O)O)c3cccc(NS(=O)(=O)c4cccc(NC(=N)N)c4)c3)cc2)C(C)C)C(=O)OCc2c1cc1n(c2=O)Cc2cc3ccccc3nc2-1 (some centres unmarked)
VALUE: 7.35
